target: Tyrosine-protein phosphatase non-receptor type 1 (Homo sapiens, UniProt P18031); assay: Inhibition of human recombinant PTP1B using p-nitrophenyl phosphate as substrate by spectrophotometric analysis
Sequence (P18031 whole entry): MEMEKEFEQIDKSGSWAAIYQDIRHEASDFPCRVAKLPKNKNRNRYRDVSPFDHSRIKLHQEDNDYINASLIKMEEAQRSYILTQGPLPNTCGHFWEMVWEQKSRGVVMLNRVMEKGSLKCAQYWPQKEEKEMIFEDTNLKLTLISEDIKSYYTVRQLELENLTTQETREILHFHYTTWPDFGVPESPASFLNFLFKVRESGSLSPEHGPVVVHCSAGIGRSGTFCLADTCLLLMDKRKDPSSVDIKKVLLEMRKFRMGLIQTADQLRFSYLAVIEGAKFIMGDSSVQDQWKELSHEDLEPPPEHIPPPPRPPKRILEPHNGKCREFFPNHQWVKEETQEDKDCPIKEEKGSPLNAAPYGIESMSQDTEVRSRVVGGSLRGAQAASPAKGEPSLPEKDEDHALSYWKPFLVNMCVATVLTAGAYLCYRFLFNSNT
OBSERVATION TYPE: IC50 (µM)

COMPOUND: CC(C)=CCc1c2c(c(O)c3c(=O)c(-c4ccc(O)c(O)c4)coc13)C=CC(C)(C)O2 [AURICULASIN]
UOM: µM
IC50: 3.6
//
COMPOUND: COc1ccc(CCC(=O)C2=C(O)C(CC=C(C)C)=C3OC(C)(C)C=CC3(CC=C(C)C)C2=O)cc1 (centres undefined)
UOM: µM
IC50: 6.5

(A) COc1cc(-c2coc3c(CC=C(C)C)c(O)c(CC=C(C)C)c(O)c3c2=O)ccc1O [FLEMINGSIN]
(B) CC(C)=CCc1c(O)c(CC=C(C)C)c2occ(-c3ccc(O)cc3)c(=O)c2c1O
## Task // returns A or B , whichever has the lower IC50 To answer, give the label that identifies your chosen option.
## Result B
(B: 9.3 µM, A: 17.4 µM)
